# assay_target: Aldo-keto reductase family 1 member A1 (Homo sapiens, UniProt P14550)
# Sequence (P14550 whole entry): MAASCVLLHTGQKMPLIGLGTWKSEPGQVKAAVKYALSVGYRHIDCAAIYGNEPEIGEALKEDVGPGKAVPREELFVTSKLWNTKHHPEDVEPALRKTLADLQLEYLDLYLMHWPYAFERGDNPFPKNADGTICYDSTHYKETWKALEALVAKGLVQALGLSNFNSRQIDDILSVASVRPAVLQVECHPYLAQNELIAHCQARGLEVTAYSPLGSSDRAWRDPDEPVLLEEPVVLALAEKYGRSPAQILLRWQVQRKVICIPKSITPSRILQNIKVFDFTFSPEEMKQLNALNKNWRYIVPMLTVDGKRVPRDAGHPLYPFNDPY
# test: Inhibition of C-terminal 6His-tagged human recombinant SCoR2 AKR1A1 expressed in Escherichia coli BL21-CodonPlus competent cells using SNO-CoA as substrate incubated for 2 mins in presence of NADPH
measurement_type: IC50
Answer format: value, then unit.

Solved entries (count: 3):
>  <molecule>
O=C(O)COc1cc2c(cc1F)C1(NC(=O)NC1=O)c1cc(F)ccc1-2 (stereo in doubt; 48-2)

>  <data_value>
82 nM

$$$$
>  <molecule>
COc1ccc2c(c1)-c1ccc(F)cc1C21NC(=O)NC1=O (stereo not given)

>  <data_value>
68 nM

$$$$
>  <molecule>
O=C1NC(=O)C2(N1)c1cc(F)ccc1-c1ccc(C3CC3)cc12 (stereo not given)

>  <data_value>
122 nM

$$$$

Measured IC50, O=C(O)Cc1c(O)c(F)cc2c1-c1ccc(F)cc1C21NC(=O)NC1=O (stereo in doubt; 47-2) : 48 nM

Measured IC50, O=C1NC(=O)C2(N1)c1cc(F)ccc1-c1ccc(Br)cc12 (stereo not given) : 51 nM

----------
# assay_target: Aldo-keto reductase family 1 member A1 (Homo sapiens, UniProt P14550)
# test: Inhibition of C-terminal 6His-tagged human recombinant SCoR2 AKR1A1 expressed in Escherichia coli BL21-CodonPlus competent cells using SNO-CoA as substrate incubated for 2 mins in presence of NADPH
// NB: equality with 60 nM counts as No; only IC50 strictly below is Yes

Sample answers from the record:
>  <molecule>
O=C1NC(=O)C2(N1)c1cc(F)ccc1-c1ccc(F)cc12

>  <label_class>
Yes

$$$$
>  <molecule>
O=C1NC(=O)C2(N1)c1cc(F)ccc1-c1cc(OC3COC3)c(F)cc12 (stereo not given)

>  <label_class>
Yes

$$$$
>  <molecule>
O=C1NC(=O)C2(N1)c1ccc(OCC(=O)N3CCC3)cc1-c1ccc(F)cc12 (stereo not given)

>  <label_class>
No

$$$$

# input for lookup
Regarding O=C1NC(=O)C2(N1)c1cc(F)ccc1-c1c(F)cccc12 (stereo not given) , kindly confirm whether its IC50 is beneath 60 nM.
No

----------
# assay_target: Aldo-keto reductase family 1 member B1 (Homo sapiens, UniProt P15121)
# test: Inhibition of C-terminal 6His-tagged human recombinant AKR1B1 expressed in Escherichia coli BL21-CodonPlus competent cells using methyl glyoxylate as substrate incubated for 2 mins in presence of NADPH
measurement_type: log10(IC50) (log10 of the value in nM)
A difference of one corresponds to tenfold IC50; all values are log10 with IC50 in nM.

>  <molecule>
O=C1NC(=O)C2(N1)c1ccc(OCC(=O)N3CCC3)cc1-c1ccc(F)cc12 (stereo not given)

>  <data_value>
1.28

$$$$

Measured log10(IC50), O=C1NC(=O)C2(N1)c1ccccc1-c1ccc(C3CC3)cc12 (stereo not given) : 2.96

Measured log10(IC50), O=C1NC(=O)C2(N1)c1cc(F)ccc1-c1c(-c3cn(C4CCCC4)nn3)cc(F)cc12 (stereo not given) : 1.04

Measured log10(IC50), O=C1NC(=O)C2(N1)c1cc(F)ccc1-c1ccc(Br)cc12 (stereo not given) : 1.34

Measured log10(IC50), O=C1NC(=O)C2(N1)c1ccccc1-c1ccc(Cl)cc12 (stereo not given) : 1.20

Measured log10(IC50), O=C1NC(=O)C2(N1)c1ccc(OCCO)cc1-c1ccc(F)cc12 (stereo not given) : 1.11

Measured log10(IC50), O=C(O)COc1cc2c(cc1F)C1(NC(=O)NC1=O)c1cc(F)ccc1-2 (stereo in doubt; 48-2) : 1.34

Measured log10(IC50), O=C1NC(=O)C2(N1)c1cc(F)ccc1-c1c(F)cccc12 (stereo not given) : 1.20

Measured log10(IC50), O=C1NC(=O)C2(N1)c1cc(F)ccc1-c1ccc(C3CC3)cc12 (stereo not given) : 2.33

Measured log10(IC50), O=C1NC(=O)C2(N1)c1ccccc1-c1c(F)cccc12 (stereo not given) : 1.72

Measured log10(IC50), O=C1NC(=O)C2(N1)c1cc(F)ccc1-c1cc(C3CC3)c(F)cc12 (stereo not given) : 1.18

Measured log10(IC50), COc1ccc2c(c1)-c1ccc(F)cc1C21NC(=O)NC1=O (stereo not given) : 1.20

Measured log10(IC50), O=C(O)Cc1c(O)c(F)cc2c1-c1ccc(F)cc1C21NC(=O)NC1=O (stereo in doubt; 47-1) : 1.62

Measured log10(IC50), O=C(O)COc1cc2c(cc1F)C1(NC(=O)NC1=O)c1cc(F)ccc1-2 (stereo in doubt; 48-1) : 1.43

Measured log10(IC50), O=C(O)Cc1c(O)c(F)cc2c1-c1ccc(F)cc1C21NC(=O)NC1=O (stereo in doubt; 47-2) : 1.51
